B1: library; numbered along this chain (parent)
chain: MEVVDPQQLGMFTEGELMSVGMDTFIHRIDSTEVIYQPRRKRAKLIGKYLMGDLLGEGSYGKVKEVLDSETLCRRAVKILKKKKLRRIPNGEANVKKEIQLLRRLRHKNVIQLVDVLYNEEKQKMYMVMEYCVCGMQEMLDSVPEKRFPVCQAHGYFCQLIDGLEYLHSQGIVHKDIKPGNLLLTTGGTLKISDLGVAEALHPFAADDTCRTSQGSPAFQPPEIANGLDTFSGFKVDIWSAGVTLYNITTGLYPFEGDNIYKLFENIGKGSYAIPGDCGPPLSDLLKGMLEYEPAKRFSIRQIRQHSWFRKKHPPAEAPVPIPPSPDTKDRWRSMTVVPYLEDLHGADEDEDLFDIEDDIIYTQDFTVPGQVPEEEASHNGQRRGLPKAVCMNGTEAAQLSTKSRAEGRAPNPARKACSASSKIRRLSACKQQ

- Variants of: B1
- experiment notes: STK11 functional score (HeLa growth suppression), rescaled enrichment; synonymous median = 1, nonsense median = 0 (normalised score)
- measurement conditions: with HeLa; variant type: missense
reported endpoint: STK11 functional score

I29W : 1.63
P254V : 0.86
V390G : 1.39
P275G : 1.14
G52M : -0.407
K81R : 1.21
G242I : -0.186
F231C : 1.33
L184Q : 0.906
I111G : 0.385
N393D : 1.07
R75T : 0.85
S232R : 1.39
L344G : 0.8
E374P : 1.42
G346I : 1.18
E396V : 1.55
N380W : 1.04
S193F : -0.0251
Q382I : 1.31
S299A : 1.42
M18Y : 1.43
S169R : 0.882
R409S : 1.02
K82D : 1.17
Q214N : 1.27
V320S : 1.48
R104S : 0.76
G394P : 1.52
E145Q : 1.29
K96P : 0.38
A410D : 1.17
T212P : 0.926
C73V : 1.55
K64C : 0.813
K96G : 1.31
K403V : 0.598
E16L : 1.15
F366P : 1.62
R425E : 1.23
S422G : 1.49
T13S : 0.282
K82F : 0.966
R103V : 0.764
S59N : 1.45
D277A : 0.843
A43V : 0.673
G242C : -0.0194
E342I : 1.42
M22C : 1.21
R383D : 1.49
K64P : 0.931
P38L : 0.812
C132R : -0.197
P321H : 1.21
P294A : 1.39
D141W : 0.69
D30W : 1.3
E130Q : 0.94
R297G : -0.132
E33A : 1.32
L50R : 1.47
P369S : 1.51
G180T : 1.53
Q220C : 1.18
G408R : 1.59
K329R : 0.535
A318F : 1.6
L117V : 0.689
G91H : 0.418
K388G : 1.31
P411N : 1.55
W239D : -0.00743
I356H : 1.51
S142K : 1.52
V368H : 1.08
L164N : 0.0402
V95P : 1.65
